// values below are reported Activity
testedSystem: Neuronal acetylcholine receptor; alpha3/beta4 (Rattus norvegicus) (UniProt P04757+P12392)
procedureSummary: Agonist activity at rat alpha-3-beta-4 nAChR expressed in HEK293 cells by FMP assay relative to acetylcholine
Format: functional, cell-based
recordedMetric: Activity (%)

- molecule: "CC(CCOC(=O)N1CC(C)(C)C1)N(C)C (centres undefined)"
  units: "%"
  reportedValue: 43
- molecule: "CC(C)C(=O)OCCC(C)N(C)C (centres undefined)"
  units: "%"
  reportedValue: 100
- molecule: "CC(CCOC(=O)C1CCC1)N(C)C (centres undefined)"
  units: "%"
  reportedValue: 85
- molecule: "CC(=O)OCCC(C)N(C)C (centres undefined)"
  units: "%"
  reportedValue: 97
